Measured viability, T/C accompanies every entry in the list below.
# Tested on: K98450-129-R-PDC multicell spheroids, viability;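 also: spheroids exposed to agents for seven days before read-out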
# method description: Anticancer human tumor K98450-129-R-PDC patient-derived colon adenocarcinoma cell line growth inhibition [PI3K]
# condition: second compound 0.01 µM; first compound 1 µM; stronger effect = lower value
Respond numerically; units are % and should not be typed.

Examples with answers:
molecule="CC1(C)CCC(CN2CCN(c3ccc(C(=O)NS(=O)(=O)c4ccc(NCC5CCOCC5)c([N+](=O)[O-])c4)c(Oc4cnc5[nH]ccc5c4)c3)CC2)=C(c2ccc(Cl)cc2)C1 + CC(Nc1ccc2c(c1)OCCn1cc(N3C(=O)OCC3C(F)F)nc1-2)C(N)=O" system_tested="K98450-129-R-PDC multicell spheroids, viability" measured_value=104
molecule="C#Cc1c(F)ccc2cc(O)cc(-c3ncc4c(N5CC6CCC(C5)N6)nc(OCC56CCCN5CC(F)C6)nc4c3F)c12 (stereo not given) + COc1c(OCCCN2CCOCC2)ccc2c3n(c(=NC(=O)c4cnc(N)nc4)nc12)CCN3" system_tested="K98450-129-R-PDC multicell spheroids, viability" measured_value=101
molecule="CC1(C)CCC(CN2CCN(c3ccc(C(=O)NS(=O)(=O)c4ccc(NCC5CCOCC5)c([N+](=O)[O-])c4)c(Oc4cnc5[nH]ccc5c4)c3)CC2)=C(c2ccc(Cl)cc2)C1 + COc1c(OCCCN2CCOCC2)ccc2c3n(c(=NC(=O)c4cnc(N)nc4)nc12)CCN3" system_tested="K98450-129-R-PDC multicell spheroids, viability" measured_value=104
molecule="C=CC(=O)N1CCN(c2nc(=O)n(-c3c(C)ccnc3C(C)C)c3nc(-c4c(O)cccc4F)c(F)cc23)C(C)C1 (stereo not given) + COc1c(OCCCN2CCOCC2)ccc2c3n(c(=NC(=O)c4cnc(N)nc4)nc12)CCN3" system_tested="K98450-129-R-PDC multicell spheroids, viability" measured_value=63

Now for the molecule whose viability, T/C we want.
// field: viability, T/C; key: Cn1nccc1Nc1nccc(-c2ccn(C(CO)c3ccc(Cl)c(F)c3)c(=O)c2)n1 (stereo not given) + CC(Nc1ccc2c(c1)OCCn1cc(N3C(=O)OCC3C(F)F)nc1-2)C(N)=O ; value = 94.7
